tested_on: T1, CT45 (CT45A1, A2, A3, A5 to A10); CT45-IP peptide on HLA-A*02:01 (human)
T1 peptide: KIFEMLEGV
assay_explanation: luciferase release, 24 h, 1:1; CD8+ T cells with TCR mRNA, T2 cells with titrated peptide; full-length, on cells

{"binder": "TCR-7 (TCR, V domains shown) Valpha: QTVTQSQPEMSVQEAETVTLSCTYDTSESDYYLFWYKQPPSRQMILVIRQEAYKQQNATENRFSVNFQKAAKSFSLKISDSQLGDAAMYFCTFRYGGATNKLIFGTGTLLAVQP Vbeta: GVIQSPRHLIKEKRETATLKCYPIPRHDTVYWYQQGPGQDPQFLISFYEKMQSDKGSIPDRFSAQQFSDYHSELNMSSLELGDSALYFCASRGGWAETPDTQYFGPGTRLTVL", "EC50 of peptide / nM": 0.48}
